Tested on: HL-60(TB) leukemia
Assay: NCI tumour cell line growth inhibition, 48 h
Measurement label: TGI

TGI reported for this compound CCN(CC)C1C(=O)NC1C#Cc1ccccc1 (stereo unspecified) : > 100 µM

TGI reported for this compound `OC(c1ccc2c(c1)OCO2)c1ccc2c(c1)OCO2` : > 100 µM

TGI reported for this compound `COc1ccc2c(c1)C(=O)/C(=C/c1ccc([N+](=O)[O-])o1)O2` : 4.19 µM

TGI reported for this compound `Fc1cccc(-n2ccc(-c3ccccc3)nc2=S)c1` : > 100 µM

TGI reported for this compound O/N=C1/CC2(N3CCOCC3)C3CC/C(=N\O)C2CC1(Cc1ccccc1)C3 (stereo unspecified) : > 100 µM

TGI reported for this compound Cn1c(N)nc(=O)c2c1N(C1OC(CO)C(O)C1O)CN2Cc1ccccc1 (stereo unspecified) : > 100 µM
